Where these numbers come from: ChEMBL document CHEMBL2069182

# assay system: Cytochrome P450 2D6 (Homo sapiens, UniProt P10635)
# Sequence (P10635 whole entry): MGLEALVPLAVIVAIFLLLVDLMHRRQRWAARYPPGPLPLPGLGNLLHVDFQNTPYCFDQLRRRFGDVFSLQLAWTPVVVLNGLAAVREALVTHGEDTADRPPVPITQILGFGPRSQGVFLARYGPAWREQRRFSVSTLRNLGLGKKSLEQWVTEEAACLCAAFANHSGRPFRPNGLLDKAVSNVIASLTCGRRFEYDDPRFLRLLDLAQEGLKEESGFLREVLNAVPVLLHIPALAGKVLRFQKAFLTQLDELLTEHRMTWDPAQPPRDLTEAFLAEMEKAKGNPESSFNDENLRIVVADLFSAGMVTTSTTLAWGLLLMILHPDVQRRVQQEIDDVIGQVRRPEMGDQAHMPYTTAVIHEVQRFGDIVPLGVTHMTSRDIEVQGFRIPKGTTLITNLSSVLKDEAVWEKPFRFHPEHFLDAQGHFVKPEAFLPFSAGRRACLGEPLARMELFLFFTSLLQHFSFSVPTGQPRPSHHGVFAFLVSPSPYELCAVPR
measurement label: IC50

(Q) // fetch IC50 for O=C(O)c1cc(NC(=O)[C@H](Cc2ccccc2)NCc2cscn2)cc(-c2ccncc2)c1 ; system: Cytochrome P450 2D6 (Homo sapiens, UniProt P10635)
(A) > 30 µM

###

# experiment description: Metabolic stability in rat liver microsomes assessed as compound remaining after 30 mins
# Type: ADME, Microsome
# test conditions: read-out: Stability
measurement label: remaining at 0.5 h (%)
Supply the numeric figure in %, leaving out any unit text.

[
  {
    "compound smiles": "O=C(O)c1cc(NC(=O)[C@H](Cc2ccccc2)NCc2cscn2)cc(-c2ccncc2)c1",
    "endpoint result": 74
  }
]

Would you kindly look at the next entry?
(Q) Answer with reported remaining at 0.5 h of Cc1cc(-c2c[nH]c(=O)c(NC(=O)[C@H](Cc3ccccc3)NCc3cscn3)c2)ccn1
(A) 11
